Measurement target: T1, Par complex (his-Par-6, aPKC) (Drosophila, UniProt O97111 1-351; A1Z9X0 1-606)
T1 construct: Par-6, Drosophila, residues 1-351; atypical protein kinase C (aPKC), Drosophila, residues 1-606; Construct as in PMID 32084408; also called full Par complex; source: HEK 293F, transfected (pCMV), purified (Ni-NTA or cobalt resin, Source Q anion exchange)
T1 sequence (looked up) 1: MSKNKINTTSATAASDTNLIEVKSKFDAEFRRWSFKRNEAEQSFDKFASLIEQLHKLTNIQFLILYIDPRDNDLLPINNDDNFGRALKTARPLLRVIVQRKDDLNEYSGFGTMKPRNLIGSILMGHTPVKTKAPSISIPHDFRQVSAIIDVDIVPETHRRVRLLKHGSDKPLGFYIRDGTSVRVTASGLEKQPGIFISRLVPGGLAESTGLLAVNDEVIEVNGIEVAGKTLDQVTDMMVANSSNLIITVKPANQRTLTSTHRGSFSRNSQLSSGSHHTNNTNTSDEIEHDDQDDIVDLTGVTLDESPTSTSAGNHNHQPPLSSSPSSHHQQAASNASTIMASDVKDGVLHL
T1 sequence (looked up) 2: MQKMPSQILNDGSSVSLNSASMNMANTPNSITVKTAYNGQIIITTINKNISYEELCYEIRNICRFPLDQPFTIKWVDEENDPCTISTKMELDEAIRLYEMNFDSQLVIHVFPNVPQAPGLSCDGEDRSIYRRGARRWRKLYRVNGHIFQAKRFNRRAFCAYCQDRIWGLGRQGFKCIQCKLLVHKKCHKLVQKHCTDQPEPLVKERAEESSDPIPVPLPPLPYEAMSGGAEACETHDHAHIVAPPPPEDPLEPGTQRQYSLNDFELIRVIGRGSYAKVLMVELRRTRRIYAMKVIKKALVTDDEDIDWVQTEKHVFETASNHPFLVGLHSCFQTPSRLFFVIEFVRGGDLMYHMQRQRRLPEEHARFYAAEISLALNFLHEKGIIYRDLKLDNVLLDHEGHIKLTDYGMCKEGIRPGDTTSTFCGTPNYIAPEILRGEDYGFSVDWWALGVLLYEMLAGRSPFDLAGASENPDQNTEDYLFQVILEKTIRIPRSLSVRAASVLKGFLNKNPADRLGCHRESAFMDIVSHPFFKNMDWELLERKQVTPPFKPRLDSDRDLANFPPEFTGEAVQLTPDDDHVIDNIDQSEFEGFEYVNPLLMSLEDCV
Protocol description: supernatant depletion assay; GST-fused protein on glutathione agarose resin (solid phase, 'ligand'); soluble protein ('receptor') left in the supernatant at equilibrium quantified on a Coomassie gel; 1 h at 20 °C; 10 mM Hepes pH 7.5, 100 mM NaCl, 1 mM DTT, 200 μM ATP, 5 mM MgCl2, 0.1% Tween-20; single-site equation; 'apparent' for Par-3 variants that could bind more than one Par complex; ATP replaced with ADP in one …
Condition context: both partners purified
Measurement label: binding result

Binder	Measurement label	Reported value
GST-Par-3 BR-PDZ2-3 (domain or fragment, Drosophila, UniProt O96782 426-741, looked up, Par-3 (Bazooka), Drosophila, residues 426-741; From pGEX) PVGTSLQVANTRKLGRKIQIMLKKGPNGLGFSVTTRDNPAGAHCPIYIKNILPRGAAIEDGRLKPGDRLLEVDGTPMTGKTQTDVVAILRGMPAGATVRIVVSRQQELAEQADQPAEKSAGVAVAPSVAPPAVPAAAAPAPPIPVQKSSSARSLFTHQQQSQLNESQHFIDAGSESAASNDSLPPSSNSWHSREELTLHIPVHDTEKAGLGVSVKGKTCSNLNASGSSASSGSNGLMKHDGDLGIFVKNVIHGGAASRDGRLRMNDQLLSVNGVSLRGQNNAEAMETLRRAMVNTPGKHPGTITLLVGRKILRSAS	binding result	binds
